Assay: Dynamic solubility experiment at 37° C.
Assay type: physicochemical
Conditions: FeSSIF, 1 h
Procedure: In the test, the purity, dynamic solubility and stability were tested using an Agilent 1260 high-performance liquid chromatograph, the molar ratio of salt-forming ions was tested using ion chromatography, and the analytical conditions are shown in Tables A-4 and A-5 below. Solids at a feeding concentration of 10 mg/mL (calculated based on free base) were rotationally mixed with corresponding vehicles at 37° C. […] The HPLC concentrations and pH values of the filtrates were determined. […]
Counter-ions that a name gives are not always drawn.
readout.kind: S: solubility (µg/mL)

1. Cc1cnc(-c2cc(O[C@@H](C)[C@@H](C)O)cc(C(=O)N[C@H](C)c3cnc(C(F)(F)F)nc3)c2F)s1 [Crystalline form A of p-toluenesulfonate]
2. Cc1cnc(-c2cc(O[C@@H](C)[C@@H](C)O)cc(C(=O)N[C@H](C)c3cnc(C(F)(F)F)nc3)c2F)s1 [Crystalline form A of maleate]
Enquiry: Lower value for measured S: solubility? Options: 1 , 2 Label of pick, please.
Return: 2
(2: 20 µg/mL, 1: 95 µg/mL)
